TARGET OR SYSTEM: T1, human GITR on naïve CD4+ T cells (human, UniProt Q9Y5U5 26-241)
T1 sequence: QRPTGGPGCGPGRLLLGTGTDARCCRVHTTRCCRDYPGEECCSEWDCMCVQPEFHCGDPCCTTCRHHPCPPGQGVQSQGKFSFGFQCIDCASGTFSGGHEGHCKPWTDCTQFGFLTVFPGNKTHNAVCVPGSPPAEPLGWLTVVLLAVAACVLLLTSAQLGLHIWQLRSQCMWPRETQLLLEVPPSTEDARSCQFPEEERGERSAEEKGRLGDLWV
ASSAY INFO: cell-based or functional assay
# reported proliferation of naïve CD4+ T cells, mean, at 0.4 ng/mL Ab; entries follow

BINDER: 1D8 (antibody, V domains shown, Parental rodent anti-human GITR monoclonal antibody from a hybridoma; kappa VL; also called 1D8.B5) VH: QVTLKESGPGILKPSQTLSLTCSFSGFSLSTSGMGVGWIRQPSGKGLEWLAHIWWDDDKYYSPSLKSQLTISKDTSRNQVFLKITSLDTADTATYYCVRSYYYGSSGAMDYWGQGTSVTVSS VL: DIVMTQTPLSLPVSLGDQASISCRSSQSLVHSDGNTYLHWYLQKPGQSPKLLIYKVSKRFSGVPDRFSGSGSGTDFTLKISRVEAEDLGVYFCSQSTHVPPTFGGGTKLEIKR
READING: 60800
--
BINDER: 49A1 (antibody, V domains shown, Parental rodent anti-human GITR monoclonal antibody from a hybridoma; kappa VL; also called 49A1.B1) VH: EVQLQESGPSLVKPSQTLSLTCSVTGDSITSGYWNWIRKFPGNKFEYMGFISYSGNTYYNPSLRSRISITRDTSKNQYFLHLNSVTTEDTATYYCSRRHLISGYGWFAYWGQGTLVTVSA VL: VIVMTQSHKFMSTSIGDRVNITCKASQDVISAVAWYQQKPGQSPKLLIYWASTRHTGVPDRFTGSGSGTDFTLTINSVQAEDRALYYCQQHSYTPPWTFGGGTNLEIKR
READING: 54300

Name the recorded proliferation of naïve CD4+ T cells, mean, at 0.4 ng/mL Ab of the binder listed here: 31H6 (antibody, V domains shown, Parental rodent anti-human GITR monoclonal antibody from a hybridoma; kappa VL; also called 31H6.B7) VH: QVTLKESGPGILQPSQTLSLTCTFSGFSLSTYGVGVGWIRQPSGKGLEWLANIWWDDDKYYNPSLKNRLTISKDTSNNQAFLKITNVDTAETATYYCAQIKEPRDWFFEFWGPGTMVSVSS VL: DIQMTQTPSSMPASLGERVTIFCRASQGVNNYLTWYQQKPDGTIKPLIFYTSNLQSGVPSRFSGSGSGTDYSLSISSLEPEDFAMYYCQQYHGFPNTFGAGTKLELKR
58500

Provenance of the data: patent US20120189639A1
